Please respond with reported hCB1 Agonism for every item in the list.
Target: hCB1 (Homo sapiens, UniProt P21554)
Sequence (P21554 whole entry): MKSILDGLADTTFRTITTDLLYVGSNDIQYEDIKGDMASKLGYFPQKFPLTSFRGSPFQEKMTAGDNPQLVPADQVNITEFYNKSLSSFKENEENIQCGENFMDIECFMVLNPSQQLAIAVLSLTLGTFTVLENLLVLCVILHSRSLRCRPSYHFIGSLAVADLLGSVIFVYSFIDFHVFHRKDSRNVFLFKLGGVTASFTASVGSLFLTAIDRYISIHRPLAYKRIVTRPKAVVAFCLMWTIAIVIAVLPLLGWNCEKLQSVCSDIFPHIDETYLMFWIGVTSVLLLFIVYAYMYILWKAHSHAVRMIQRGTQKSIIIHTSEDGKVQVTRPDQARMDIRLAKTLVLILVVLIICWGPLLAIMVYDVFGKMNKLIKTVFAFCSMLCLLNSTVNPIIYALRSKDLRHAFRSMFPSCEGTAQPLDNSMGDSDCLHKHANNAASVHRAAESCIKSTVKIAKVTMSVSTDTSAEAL
Test: Agonism of CB1 receptors expressed in CHO cells, forskolin cAMP assay (Protocol IX.2)
Assay type: cell-based
Parameters: expressed in transfected cells; host or cells: CHO (h-CB1/CHO, G418-selected)
Conditions: at 10 uM, h-CB1/CHO cells, cAMP
Answer in % at, number only, no unit symbol.

Recorded result, CC(C)(C)NC(=O)c1nn(-c2ccc(F)cc2F)c2c1[C@@H]1CC[C@H]2C1 (single isomer, unassigned) [Example 304] , hCB1 Agonism: 55

Recorded result, O=C(NCC1CCOCC1)c1nn(-c2ccc(F)cc2F)c2c1C1CCC2C1 (stereo not shown) , hCB1 Agonism: 18.53

Recorded result, `O=C(NN1CCCCC1)c1nn(-c2ccc(Cl)cc2)c2c1C1CC3CC(C1)CC2C3` , hCB1 Agonism: 48.88

Recorded result, CC(C)(C)NC(=O)c1nn(-c2ccc(F)cc2F)c2c1[C@@H]1CC[C@H]2C1 (single isomer, unassigned) [Example 305] , hCB1 Agonism: 20
